# System: TK-10
# experiment.description: NCI tumour cell line growth inhibition, 48 h
Activity calls are given as the source filed them. Cut-off read from the data, not from the text of the source: active = GI50 up to about 1.1 µM and inactive = higher.
Returns: one label drawn from active, inactive

Reference set (4 entries):
Cc1ccc(-c2c(N)nc(NC#N)nc2CCC(=O)Nc2ccccc2[N+](=O)[O-])cc1 ... inactive
Nc1nc(Cl)c2ncn(Cc3cccc(CCl)c3)c2n1 ... inactive
COc1ccc(C2C(Cl)C(=O)N2NC(=O)c2ccc(N)cc2)cc1OC (stereo unspecified) ... inactive
O=C(O)CC1OCC=C2C[N+]3([O-])CCC45c6ccccc6NC4C1C2CC53 (stereo unspecified) ... inactive

# input For COC(=O)/C=C/[C@@H]1[C@H](C)N1S(=O)(=O)c1ccc(C)cc1 (stereo partly specified) , which call appears in the assay record?
# output inactive

# input For COc1cc(C)c(C2NC(=O)c3ccccc3N2)cc1C (stereo unspecified) , which call appears in the assay record?
# output inactive

# input For `COC(=O)CCCc1nc2ccccc2nc1/N=N/c1ccccc1` , which call appears in the assay record?
# output inactive

# input For `CC(=O)OC(C)(C)/C=C/C(=O)[C@](C)(O)[C@H]1[C@H](O)C[C@@]2(C)[C@@H]3CC=C4[C@@H](C[C@H](O)C(=O)C4(C)C)[C@]3(C)C(=O)C[C@]12C` , which call appears in the assay record?
# output active

# input For OCC1OC(c2cccc3cc(O)c(O)cc23)CC1O (stereo unspecified) , which call appears in the assay record?
# output inactive

# input For COc1ccc2oc(C(=O)N3CC(CCl)c4ccc([N+](=O)[O-])cc43)cc2c1 (stereo unspecified) , which call appears in the assay record?
# output inactive

# input For CC1(C)C2CC(O)C1(C)CC2=O (stereo unspecified) , which call appears in the assay record?
# output inactive

# input For COC(=O)[C@@H]1CS(=O)(=O)C(C(C)C)N1C(C)=O (stereo partly specified) , which call appears in the assay record?
# output inactive

# input For `O=C1c2cccc(NCCNCCO)c2C(=O)c2cccc(NCCNCCO)c21` , which call appears in the assay record?
# output inactive

# input For `CCOC(CN(C)C(=O)OCC(Cl)(Cl)Cl)OCC` , which call appears in the assay record?
# output inactive

# input For `CCN(CC)CCNC(=O)c1ccc([N+](=O)[O-])cc1OC` , which call appears in the assay record?
# output inactive

# input For `COc1ccc2[nH]c(=O)cc(C)c2c1[N+](=O)[O-]` , which call appears in the assay record?
# output inactive

# input For `O=C1NC(=S)NC(=O)C1=C(O)Nc1ccccc1` , which call appears in the assay record?
# output inactive

# input For `Nc1ccc2c(c1)NCCN2` , which call appears in the assay record?
# output inactive

# input For `O=C(O)/C(=C/c1c(O)ccc2ccccc12)c1csc(-c2nc(/C(=C\c3c(O)ccc4ccccc34)C(=O)O)cs2)n1` , which call appears in the assay record?
# output inactive

# input For CC1NC(=O)c2c(-c3ccccc3)nn(-c3ccccc3)c2NC1=O (stereo unspecified) , which call appears in the assay record?
# output inactive

# input For CC(=O)c1cccc(NC(=O)C(=O)C(C2OC(=O)c3ccccc32)[N+](=O)[O-])c1 (stereo unspecified) , which call appears in the assay record?
# output inactive
